Entry source: patent US8017612B2

- MEASURED ON: HCV polymerase (NS5B) type 1a (Hepatitis C virus genotype 1a, UniProt P26664)
- Construct: made in house; host or cells: Escherichia coli (by the 'similar method' of the 1b enzyme)
- TEST METHOD NOTES: Assay of enzyme (HCV polymerase) inhibitory activity, type 1a enzyme
- Format: biochemical, HCV type 1a (cloned from the blood of patients)
- CONDITION PARAMETERS: HCV polymerase inhibitory activity (IC50), 1a, type 1a enzyme 1.5 μg/ml, 25° C., 60 min
Where a name gives a salt, the structure may show the parent alone.
VALUE KIND: IC50

CC(C)(C)c1ccc(CNC(=O)[C@H]2CN(c3nc4c(s3)C(=O)NCC4)CCN2S(=O)(=O)c2ccc(OC(F)(F)F)cc2)cc1	< 100 nM
CN(C)c1ccc(CNC(=O)C2CN(C(=O)CN)CCN2S(=O)(=O)c2ccc(I)cc2)cc1 (stereo not shown) [Example 88, hydrochloride]	> 1000 nM
COc1cccc(CNC(=O)[C@H]2CN(C(C)=O)CCN2S(=O)(=O)c2ccc(OC(F)(F)F)cc2)c1	> 1000 nM

### Prompt Fill blank: measured IC50 of the molecule CCCc1ncc(S(=O)(=O)N2CCN(C(C)=O)C[C@@H]2C(=O)NCc2ccc(C(C)C)cc2)s1 is ____.
### Response < 100 nM

### Prompt Fill blank: measured IC50 of the molecule CCCc1ccc(CNC(=O)[C@H]2CN(C(=O)Cn3nnnc3C)CCN2S(=O)(=O)c2ccc(OC(F)(F)F)cc2)cc1 is ____.
### Response < 100 nM

### Prompt Fill blank: measured IC50 of the molecule CC(C)c1ccc(CNC(=O)[C@H]2CN(C(=O)CCCCC(=O)O)CCN2S(=O)(=O)c2ccc(C(F)(F)F)cc2)cc1 is ____.
### Response 100 to 1000 nM

### Prompt Fill blank: measured IC50 of the molecule COC(=O)CCOc1ccc(S(=O)(=O)N2CCN(C(C)=O)C[C@@H]2C(=O)NCc2ccc(C(C)C)cc2)cc1 is ____.
### Response 100 to 1000 nM
